Test: P-glycoprotein substrates identified in KB-8-5-11 adenocarcinoma cell line, qHTS therapeutic library screen (AID 1346987); also: nearly all actives have a fitted effect of over 65% in size
Experimental parameters: KB-8-5-11 (P-gp overexpressing) viability, CellTiter-Glo, 72 h; series mostly up to 44.5 µM
Results filed as inconclusive are left out. Calls of active or inactive are those of the source. Calls follow the shape of the dose curve; as a rule, active = well fitted inhibition curve with a large enough effect; inconclusive = small, poorly fitted or top-dose-only effect; inactive = flat fitted curve, though single readings scatter.
Mark one answer only. Choices: active, inactive

Worked cases, answers included:
Molecule	Class assignment
O=C(O)CC(=O)OC[C@H]1O[C@@H](Oc2ccc3c(c2)OC[C@H]2c4cc5c(cc4O[C@@H]32)OCO5)[C@H](O)[C@@H](O)[C@@H]1O	inactive
CC1(C)CCCC2(C)C1CC(=O)C13CC(CCC12)C(O)(CO)C3 (stereo not drawn)	inactive
COc1cc(O)c2c(c1)C1=CC(O)C(O)CC1(C)OC2=O (stereo not drawn)	inactive

Can you look up the reported call for `CCOc1cc(C(=O)N2CCC(N3CCN(C)CC3)CC2)ccc1Nc1ncc2c(n1)N(C1CCCC1)c1ccccc1C(=O)N2C` for me?
active

Can you look up the reported call for `O=C(OC[C@H]1O[C@H](O[C@]2(CO)O[C@H](CO)[C@@H](O)[C@@H]2O)[C@H](O)[C@@H](O)[C@@H]1O)c1ccccc1` for me?
inactive

Can you look up the reported call for `Nc1ncnc2c1nc(N)n2[C@@H]1O[C@H](CO)[C@@H](O)[C@H]1O` for me?
active

Can you look up the reported call for `COC(=O)Cc1cc2c(c([N+](=O)[O-])c1)N(C(=O)CC[C@H](N)C(=O)O)CC2` for me?
inactive

Can you look up the reported call for `COc1cccc(-c2cc(NCc3ccc4c(c3)OCO4)nc(N)n2)c1` for me?
active
